assay: chemical genetic growth profiling, strain panel (AID 1159580);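 note: tested at 20 µM; growth read once vehicle control cultures reached saturation at 30 °C; 1 = growth at the plate median or of vehicle wells; lower values mean less growth of the strain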; details: S. cerevisiae deletion strains, growth OD, locus YLR113W, strain HOG1, stronger effect = lower value
In all, about 5,500 compounds went through this assay and about 2,000 (36%) were called active. Another 18% or so got no clear call; they are omitted. This is one part of the list.
Measured normalized growth accompanies every entry in the list below.

Molecule: Clc1ccccc1CN1CCc2sccc2C1
normalized growth: 0.98

Molecule: NC1(C(=O)O)CC1
normalized growth: 1.04

Molecule: CC1CCC(C(C)C)C(N(Cc2ccccc2)C(=O)c2ccccc2)C1 (stereo not drawn)
normalized growth: 0.922

Molecule: Clc1ccc(COC(Cn2ccnc2)c2ccc(Cl)cc2Cl)c(Cl)c1 (stereo not drawn)
normalized growth: 0.128

Molecule: NC(=O)NC1NC(=O)NC1=O (stereo not drawn)
normalized growth: 1.04

Molecule: CN/C(=C\[N+](=O)[O-])NCCSCc1csc(CN(C)C)n1
normalized growth: 1.06

Molecule: COc1cc(C)c2c(=O)cc(-c3ccccc3)oc2c1
normalized growth: 0.721

Molecule: C[C@@H](Nc1ncnc2sc3c(c12)CCCC3)c1ccccc1
normalized growth: 0.766

Molecule: COc1ccc2oc(-c3ccccc3)c(OC)c(=O)c2c1
normalized growth: 0.937

Molecule: C[C@]12CCC3c4ccc(O)cc4CCC3C1CCC2=O (stereo partly drawn)
normalized growth: 0.98

Molecule: COc1ccc(-c2oc3ccccc3c(=O)c2OC)cc1
normalized growth: 0.934

Molecule: CC(C)(S)[C@@H](N)C(=O)O
normalized growth: 0.99

Molecule: NC1(C(=O)O)CCCC1
normalized growth: 1.06

Molecule: N/C(=N/O)c1ccc(Oc2ccc(C3SCCS3)cc2)c([N+](=O)[O-])c1
normalized growth: 1.02

Molecule: CN1CCC[C@@H]1CCO[C@](C)(c1ccccc1)c1ccc(Cl)cc1
normalized growth: 0.969

Molecule: C=CCS(=O)C[C@H](N)C(=O)O (stereo partly drawn)
normalized growth: 1.02

Molecule: COc1ccc(-c2oc3cc(OC)c(OC)c(OC)c3c(=O)c2OC)cc1OC
normalized growth: 0.902

Molecule: COc1ccc2c(=O)c(OC)c(-c3ccccc3)oc2c1
normalized growth: 0.931

Molecule: Oc1c(Cl)cc(Cl)c(Cl)c1Cc1c(O)c(Cl)cc(Cl)c1Cl
normalized growth: 0.119

Molecule: C=NC(C(=O)NC1C(=O)N2C1SC(C)(C)C2C(=O)O)c1ccccc1 (stereo not drawn)
normalized growth: 1.01

Molecule: Cc1cccc(C)c1NC(=O)C1CCCCN1C (stereo not drawn)
normalized growth: 1.01

Molecule: O=C(Nc1ccccc1)OCC(CN1CCCCC1)OC(=O)Nc1ccccc1 (stereo not drawn)
normalized growth: 1.01

Molecule: OC[C@H]1O[C@@H](n2cnc3c(NCc4ccco4)ncnc32)[C@H](O)[C@@H]1O
normalized growth: 1.03

---

experiment: chemical genetic growth profiling, strain panel (AID 1159580);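 note: tested at 20 µM; growth read once vehicle control cultures reached saturation at 30 °C; 1 = growth at the plate median or of vehicle wells; lower values mean less growth of the strain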; conditions: S. cerevisiae deletion strains, growth OD, locus YPR119W, strain clb2, stronger effect = lower value
The whole screen tested about 5,500 compounds, of which about 2,000 (36%) were called active. Inconclusive results (about 18%) are left out. This is one part of the list.
Observable: normalized growth

Molecule: COc1c(C)c2c(c(O)c1C/C=C(\C)CCC(=O)O)C(=O)OC2
Observable: normalized growth
Readout value: 0.815 (active)

Molecule: Oc1c(Cl)cc(Cl)c(Cl)c1Cc1c(O)c(Cl)cc(Cl)c1Cl
Observable: normalized growth
Readout value: 0.0624 (active)

Molecule: CC(=O)O[C@]1(C)CC[C@@]23CC1C(C)(C)[C@@H]2CC[C@H]3C
Observable: normalized growth
Readout value: 1.01 (inactive)

Molecule: CCC(C)C(=O)c1c(O)c(C)c2oc3c(C)c(O)c(C(=O)C(C)CC)c(O)c3c2c1O (configuration not stated)
Observable: normalized growth
Readout value: 0.99 (inactive)

Molecule: CC(=O)O[C@H]1C[C@@]2(C)[C@@H](C[C@@H](O)C3[C@]2(C)CC[C@H]2[C@H](C)[C@H](O)CC[C@]32C)/C1=C(/CCC=C(C)C)C(=O)O (some centres not stated)
Observable: normalized growth
Readout value: 1.02 (inactive)

Molecule: NC(N)=NCCN1CCCCCCC1
Observable: normalized growth
Readout value: 1.03 (inactive)

Molecule: CC(C)/C(O)=C1/C(=O)O[C@@H](c2ccoc2)[C@]2(C)C(O)[C@@H](O)[C@@]34OC5(C)OC67CC(C)(C(O)[C@]6(O)[C@@H](O)[C@]3(O5)C12)[C@H](CC(=O)O)[C@]74C (some centres not stated)
Observable: normalized growth
Readout value: 1.01 (inactive)

Molecule: CNc1ccc(C(=O)CC(O)CCC(C)C2OC(=O)CC(O)CC(=O)CC(O)CC(O)CC(O)CC(O)CC3(O)CC(O)C(C(=O)OC)C(CC(OC4OC(C)C(O)C(N)C4O)/C=C/C=C/C=C/C=C/C=C/C=C/C=C/C2C)O3)cc1 (configuration not stated)
Observable: normalized growth
Readout value: 0.0662 (active)

Molecule: Cc1cc(/C=C/c2ccc3cc(N(C)C)ccc3[n+]2C)c(C)n1-c1ccccc1
Observable: normalized growth
Readout value: 1.01 (inactive)

Molecule: CN[C@@H]1C(OC2[C@H](O[C@H]3[C@H](O)[C@@H](O)[C@H](N=C(N)N)[C@@H](O)[C@@H]3N=C(N)N)OC(C)[C@]2(O)CO)OC(CO)C(O)C1O (some centres not stated)
Observable: normalized growth
Readout value: 0.971 (inactive)

Molecule: NCCCNCCSP(=O)(O)O
Observable: normalized growth
Readout value: 0.995 (inactive)

Molecule: C1N2CN3CN1CN(C2)C3
Observable: normalized growth
Readout value: 0.983 (inactive)

Molecule: Cc1ccc(C(=O)c2ccc(CC(=O)O)n2C)cc1
Observable: normalized growth
Readout value: 0.975 (inactive)

Molecule: NC1(C(=O)O)CCCC1
Observable: normalized growth
Readout value: 0.998 (inactive)

Molecule: NCC[C@@H](O)C(=O)N[C@@H]1C[C@H](N)[C@@H](O[C@H]2O[C@H](CN)[C@@H](O)[C@H](O)[C@H]2O)[C@H](O)[C@H]1O[C@H]1O[C@H](CO)[C@@H](O)[C@H](N)C1O (some centres not stated)
Observable: normalized growth
Readout value: 1.01 (inactive)

Molecule: COc1ccc2oc3ccccc3c(=O)c2c1
Observable: normalized growth
Readout value: 0.907 (active)

Molecule: CCN1C[C@@]2(COC)C3[C@@H](OC)[C@H]4[C@@H]1[C@]3(C(OC)C[C@H]2O)C1C[C@@]2(O)[C@H](OC(=O)c3ccccc3)C1[C@]4(OC(C)=O)[C@@H](O)[C@@H]2OC (some centres not stated)
Observable: normalized growth
Readout value: 1.03 (inactive)

Molecule: CCCNC(=O)NS(=O)(=O)c1ccc(Cl)cc1
Observable: normalized growth
Readout value: 0.999 (inactive)

Molecule: CC1[C@H](C)OC(=O)CC(O)CC(O)CC(O)CCC(O)C(O)C[C@]2(O)CC(O)C(C(=O)O)C(CC(OC3O[C@H](C)[C@@H](O)[C@H](N)[C@@H]3O)/C=C/C=C/C=C/C=C/CC/C=C/C=C/[C@H](C)[C@H]1O)O2 (some centres not stated)
Observable: normalized growth
Readout value: 0.271 (active)

Molecule: Cc1cc(CC(=O)O)n(C)c1C(=O)c1ccc(Cl)cc1
Observable: normalized growth
Readout value: 1.01 (inactive)

Molecule: Cc1onc(-c2ccccc2)c1-c1ccc(S(N)(=O)=O)cc1
Observable: normalized growth
Readout value: 1 (inactive)

Molecule: CCC(=O)OC1[C@@H]2CC3=C4CC(=O)O[C@@H](c5ccoc5)[C@]4(C)CCC3[C@@](C)(C2=O)[C@@H](CC(=O)OC)C1(C)C (some centres not stated)
Observable: normalized growth
Readout value: 1.01 (inactive)

Molecule: Cc1oncc1C(=O)Nc1ccc(C(F)(F)F)cc1
Observable: normalized growth
Readout value: 0.989 (inactive)

Molecule: Clc1ccc(COC(Cn2ccnc2)c2ccc(Cl)cc2Cl)c(Cl)c1 (configuration not stated)
Observable: normalized growth
Readout value: 0.0606 (active)

Molecule: COc1ccc2oc(-c3ccccc3)c(OC)c(=O)c2c1
Observable: normalized growth
Readout value: 0.919 (active)

Molecule: O=C(O)C1CCCNC1 (configuration not stated)
Observable: normalized growth
Readout value: 1.03 (inactive)

Molecule: O=C(O)CCC1NCC2CC1CN1CCCCC21 (configuration not stated)
Observable: normalized growth
Readout value: 0.991 (inactive)
